- Tested on: OVCAR-8
- Experiment: NCI tumour cell line growth inhibition, 48 h
Counter-ions that a name gives are not always drawn. The source made the active and inactive calls. Rule as the data show it: active = GI50 up to about 1.1 µM and inactive = higher.
Outcomes: 1 (yes) (active), 0 (no) (inactive)

| Compound | Label |
| --- | --- |
| C1C2CC3CC1CC(Nc1nc(NC45CC6CC(CC(C6)C4)C5)nc(NC45CC6CC(CC(C6)C4)C5)n1)(C2)C3 | 0 (no) |
| CC(C)c1cc(C(C)C)c(Cl)c(Cl)c1O.CC(C)c1cc(Cl)c(O)c(C(C)C)c1Cl | 0 (no) |
| COCOC1/C=C/CCCCC2=C(C)C=C(C1)O2 (centres undefined) | 0 (no) |
| COC1CC(OC2C(C)OC(OC3C(C)OC(OC4C(O)CC(O[C@H]5CC[C@@]6(C)C(=CC[C@]7(O)[C@@H]6C[C@@H](OC(C)=O)[C@@]6(C)[C@]7(O)CC[C@@]6(O)C(C)=O)C5)OC4C)CC3OC)CC2OC)OC(C)C1O (some centres undefined) | 0 (no) |
| CCCOC(=O)CNC(=O)OC(C)(C)C | 0 (no) |
| COC(=O)CCC(=O)Nc1cc(C)ccc1C | 0 (no) |
| ClCCN1CCO/C1=N/c1ccc2c(c1)CCCC2 | 0 (no) |
| CC(=O)N(C(=O)CC(=O)N1N=C(c2ccccc2)C(/N=N/c2ccccc2[N+](=O)[O-])C1=O)c1ccc(Cl)cc1 (centres undefined) | 0 (no) |
| O=C(O)CCC(=O)Nc1ccc2ccccc2c1 | 0 (no) |
| Cc1cc2ncn(CC(=O)O)c2cc1C | 0 (no) |
| Cc1ccc(S[C@@](C=O)(NC(=O)OCc2ccccc2)C(F)(F)F)cc1 | 0 (no) |
| CC(C)(C)C1=C(Br)C(F)(C(C)(C)C)OP1(=O)c1ccccc1 (centres undefined) | 0 (no) |
| CNc1ncnc(Sc2nc(N)nc3[nH]cnc23)c1[N+](=O)[O-] | 1 (yes) |
| CS(=O)(=O)c1nc(-c2cc3c(c(S(C)(=O)=O)n2)CCC3)cc2c1CCCC2 | 0 (no) |
| O=C1Nc2ccccc2/C1=N/Nc1ccccc1[N+](=O)[O-] | 0 (no) |
| CC1(C)/C(=N\O)C2(OS(=O)(=O)C(F)(F)F)CCC1C2 (centres undefined) | 0 (no) |
| CCCC(=O)OC1CC(n2cc(F)c(=O)[nH]c2=O)OC1CO (centres undefined) | 1 (yes) |
| N#CCCN(CCC#N)c1ccc(/C=C2\N=C(c3ccccc3)N(c3ccccc3)C2=O)cc1 | 0 (no) |
| CC1=NCCN=C(C)C1/N=N/c1ccc2[nH]c(C)nc2c1 | 0 (no) |
| O=C(O)CSc1cc(-c2ccccc2)nc2ccccc12 | 0 (no) |
| N#CC(CC(=O)O)=C(c1ccccc1)c1ccccc1 | 0 (no) |
| O=C1c2ccccc2-c2ccc(N(Cc3ccc(Br)cc3)Cc3ccc(Br)cc3)cc21 | 0 (no) |
| O=C(c1ccncc1)n1nc(-c2ccccc2)c(/N=N/c2ccc([N+](=O)[O-])cc2)c1-c1ccccc1 | 0 (no) |
| COc1cccc(C(C#N)NNC(=O)c2c(Cl)c(Cl)c(Cl)c(Cl)c2-c2nc3cc(C(=O)c4ccccc4)ccc3[nH]2)c1O (centres undefined) | 0 (no) |
| CCC(C)C(C(=O)N/N=C1/SCC(=O)N1C)C(=O)N/N=C1/SCC(=O)N1C (centres undefined) | 0 (no) |
| COc1ccc(/N=N/C(=O)NC(CC(C)C)C(=O)NCC(=O)O)cc1 (centres undefined) | 0 (no) |
| CC(=O)N(C)c1ccc(Nc2cc(C)nc3ccc4nc[nH]c4c23)cc1 [ACODAZOLE HYDROCHLORIDE] | 0 (no) |
| Cc1nc2ccccc2c(=O)n1NC(=O)c1ccc([N+](=O)[O-])cc1 | 0 (no) |
| COc1cc2c(cc1O)[C@]1(Cc3ccc4c(c3C1=O)OCO4)N(C)CC2 | 0 (no) |
